# assay overview: Evaluation of total body clearance (CLtot), intravenous administration
# Type: in vivo, Sprague-Dawley (SD)
# test conditions: rat (SD), intravenous administration 0.5-10 mg/kg; CLtot = dose/AUC
property measured: rat_CLt

compound: COc1ccc(S(=O)(=O)N(CC(C)C)CC(O)C(Cc2ccc(OCc3ccccc3-c3sc(Cl)c(C4CCCCC4)c3C(=O)O)cc2)NC(=O)OC2COC3OCCC23)cc1 (stereo not drawn)
value measured: 5.22 mL/min/kg
--
compound: COc1ccc(S(=O)(=O)N(CC(C)C)CC(O)C(Cc2ccc(N3CC(C)C(Oc4ccccc4-c4sc5c(c4C(=O)O)CC(C)(C)CC5)C3)cc2)NC(=O)OC2COC3(C)OCCC23)cc1 (stereo not drawn)
value measured: 4.61 mL/min/kg

What value of rat_CLt has been recorded for this entry: "COc1ccc(S(=O)(=O)N(CC(C)C)C[C@@H](O)[C@H](Cc2ccc(OCc3ccccc3-c3sc4c(c3C(=O)O)CCCC4=O)cc2)NC(=O)O[C@H]2CO[C@@]3(C)OCC[C@@H]23)cc1"
5.11 mL/min/kg
